Attribution: paper PMC5820647

# procedure_details: Pharmacokinetic study in rats after oral administration of A. japonica extract (LC-MS/MS of plasma)
# Format: in vivo
# test_settings: male, Sprague-Dawley, in vivo; rat plasma, oral A. japonica extract 0.93 g kg^−1; read-out: peak plasma concentration (Cmax)
endpoint_label: Cmax
Number first, unit second: that is the form wanted.

Q: // lookup Cmax for C[C@@H]1O[C@@H](Oc2c(-c3ccc(O)c(O)c3)oc3cc(O)cc(O)c3c2=O)[C@H](O)[C@H](O)[C@H]1O [Quercetin-3-rhamnoside, quercetin-3-rhamnoside]
Result: 7.08 ng/mL

---

# procedure_details: Pharmacokinetic study in rats after oral administration of A. japonica extract (LC-MS/MS of plasma)
# Type: in vivo
# test_settings: male, Sprague-Dawley, in vivo; rat plasma, oral A. japonica extract 0.93 g kg^−1; read-out: area under the curve (AUC0–24 h)
endpoint_label: AUC(0-t) (ng·h/mL)
Answers are plain numbers, in ng·h/mL.

Q: // lookup AUC(0-t) for C[C@@H]1O[C@@H](Oc2c(-c3ccc(O)c(O)c3)oc3cc(O)cc(O)c3c2=O)[C@H](O)[C@H](O)[C@H]1O [Quercetin-3-rhamnoside, quercetin-3-rhamnoside]
Result: 6.44
